Recorded values, source PubChem BioAssay (NCI).

# System: RXF 393 renal
# runDescription: NCI-60 one-dose screen, 48 h (100 = growth as untreated, 0 = no growth, -100 = all killed)
# conditionParameters: 10 µM unless noted
About 83,000 compounds went through this panel and 20% of them were active in at least one assay; those are over-represented in the sample as a whole.
observedProperty: growth (%)
One number for each entry, in %.

Below: 8 compounds and their reported growth.
compound	subjectOfTest	observedResult
CCN(CC)CCOc1ccc(-c2nc3cc(Cl)ccc3s2)cc1	RXF 393 renal	29.8
COc1ccc2nc3cc(Cl)ccc3c(NCCNc3c4ccc(Cl)cc4nc4ccc(OC)cc34)c2c1	RXF 393 renal	-93
Oc1c(Br)cc(Cl)cc1C(c1cc(Cl)cc(Br)c1O)C(Cl)(Cl)Cl	RXF 393 renal	12
O=C(CC1(O)C(=O)Nc2c(Cl)ccc(Cl)c21)c1ccc(Cl)cc1Cl (centres undefined)	RXF 393 renal	94.5
NC(=S)N/N=C\c1nccc2c(C(F)(F)C(F)(F)C(F)(F)F)cccc12	RXF 393 renal	-11.7
OC(CNc1ccnc2cc(Cl)ccc12)CNc1ccnc2cc(Cl)ccc12	RXF 393 renal	97.4
O=C1c2ccccc2C(=O)c2sc(Nc3ccc(Cl)cc3)nc21	RXF 393 renal	17
O=C(/C=C/C=C/c1ccccc1)c1ccco1	RXF 393 renal	46

Quick batch: growth for everything below.
1. CCC(=O)Sc1ccccc1C(=O)Nc1ccc(Cl)cc1
2. C[N+](C)=c1ccc2nc3c(cc(NCCCNc4cc5oc6cc(=[N+](C)C)ccc-6nc5c5ccccc45)c4ccccc43)oc-2c1
3. Cc1ccnc(NC(c2ccccc2)c2ccc3cccnc3c2O)c1 (centres undefined)

88.2
58.2
66.9

Quick batch: growth for everything below.
1. CCC(CC)COC(=O)c1ccc(O)c(O)c1
2. O=C1c2ccccc2C(=O)N1c1ccccc1
3. CN(C)c1ccc(/C=N/N=C(\C#N)[S][Sn]([Cl])([c]2ccccc2)[c]2ccccc2)cc1
4. COc1cc(/C=C(/C)C[N+](=O)[O-])ccc1O
5. O[C@H]1[C@H]2c3cc4c(cc3CN3CCC(=C[C@@H]1O)[C@H]23)OCO4
6. C=CCOc1ccc(N=NC(C#N)C#N)cc1
7. CCN1/C(=C\c2cc[n+](CC)c3ccccc23)C=Cc2ccccc21

[65.7, 112, -86.3, 91.2, 19, 51.1, 16.4]

Give reported growth for N#CSCc1ccc(Cl)c(CSC#N)c1 (RXF 393 renal) 5.61

###

# Tested on: HCT-116 colon
# runDescription: NCI-60 one-dose screen, 48 h
# conditionParameters: 10 µM unless noted
This is part of a sample that, as a whole, favours compounds with a hit. Of some 83,000 tested, about 20% had one in any assay. Activity calls are given as the source filed them. How the source made its calls: active means growth percent below 10; inactive means the rest.
The reply should name one outcome from yes (1) (active), no (0) (inactive)

molecule	discreteLabel
OC(CNc1ccnc2cc(Cl)ccc12)CNc1ccnc2cc(Cl)ccc12	yes (1)
O=C1C=CC(=O)N1C1c2ccccc2-c2ccccc21	no (0)
O=C1N[C@H]2[C@H](CS[C@H]2CCCCC(=O)N(CCP(c2ccccc2)c2ccccc2)CCP(c2ccccc2)c2ccccc2)N1	no (0)
CCOC(=O)/C=C/c1ccc([N+](=O)[O-])o1	yes (1)
Cc1cc(C(C)(CC(C)C)c2ccc(O)c(C)c2)ccc1O	no (0)
Oc1c(Br)cc(Cl)cc1C(c1cc(Cl)cc(Br)c1O)C(Cl)(Cl)Cl	yes (1)
Cn1c2c(c3ccccc31)CCN1C[C@@H]3CCCC[C@H]3C[C@@H]21	yes (1)
CN1c2ccccc2C(C)(C)C12C=Cc1cc(O)ccc1O2 (stereo unspecified)	no (0)
O=C1c2ccccc2C(=O)c2sc(Nc3cccc(Cl)c3)nc21	yes (1)
COC(=O)c1nc(=S)[nH]c(C(=O)OC)c1C(=O)c1ccc2ccccc2c1	no (0)

// outcome(item) with item = Cc1ccc(N=C=C(c2ccccc2)c2ccccc2)cc1 no (0)

// outcome(item) with item = Oc1c(Br)c(Br)c(O)c(Br)c1Br no (0)
